Documented EC50 (read off the curve) across a set of binders
# TARGET UNDER TEST: T1, full-length human FOLR1 on stably transfected CHO cells (human, UniProt P15328 25-234)
# T1 construct: also called CHO cells stably expressing human FOLR1
# T1 sequence (P15328 25-234 limits assumed): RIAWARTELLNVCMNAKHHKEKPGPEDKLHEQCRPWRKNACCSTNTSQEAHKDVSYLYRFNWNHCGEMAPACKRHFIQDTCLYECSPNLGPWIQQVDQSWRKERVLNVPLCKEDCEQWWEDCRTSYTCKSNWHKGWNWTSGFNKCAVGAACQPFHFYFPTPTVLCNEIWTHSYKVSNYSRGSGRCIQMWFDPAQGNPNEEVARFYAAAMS
# PROCEDURE DETAILS: FACS on CHO cells stably expressing full-length human FOLR1; PE goat anti-mouse IgG; MFI

BINDER: mouse anti-FOLR1 mAb F7 (purified from hybridoma supernatant) (antibody, V domains shown, Mouse antibody from hybridoma, purified on Protein A, detected with anti-mouse IgG; also called mAb clone F7) VH: EFQLQQSGPELVKPGASVKISCKASGYSFTDYNMNWVKQSNGKSLEWIGVIDPNYGTTNYNQKFVGKATLTVDQSSITAYMQLNSLTAEDSAVYFCAIKGYGNPAAYWGQGTLVTVSA VL: DIQMTQSPSSLSASLGGKVTITCKASQDINKYLAWYQHEPGKGPRLLIRYTSILESGIPSRFSGSGSGRDYSFSISNLEPEDIATYYCLQYYNLWTFGGGTKLEIK
EC50 (read off the curve): ~0.1 µg/mL
--
BINDER: mouse anti-FOLR1 mAb F17 (purified from hybridoma supernatant) (antibody, V domains shown, Mouse antibody from hybridoma, purified on Protein A, detected with anti-mouse IgG; also called mAb clone F17) VH: DVQLVESGGGLVQPGGSRKLSCAASGFTFSDFGMHWIRQAPERGLEWVAYMSYTPGTFHYADTVKDRFFISRDNAKNTLFLQMTSLRSDDTAMYYCARVHVGTVDYWGQGTSVTVSS VL: DVVLTQSPATLSVTPGDSVSLSCRASQNINNNLHWFQQKSHESPRLLIKYASQSISGIPSRFSGSGSGTDFTLSINNVETEDFGIYFCQQSNSWPALTFGTGTKVELK
EC50 (read off the curve): ~0.3 µg/mL

We next turn to a different binder, shown below.
Query: Report measured EC50 (read off the curve); entry is mouse anti-FOLR1 mAb F8 (purified from hybridoma supernatant) (antibody, V domains shown, Mouse antibody from hybridoma, purified on Protein A, detected with anti-mouse IgG; also called mAb clone F8) VH: EVMLVESGGGLVKPGGSLKLSCVASGFTLSTYAMSWVRQTPEKRLEWVATISGGGGDTYHLDTVKGRFTISRDNAKNTLYLQMSSLRSEDTALYYCARQSHYGSSYYFDNWGQGTTLTVSS VL: DIQMTQSPASLSASVGEIVTIICRVSENIDSYLAWYQQKQGKSPQLLVYAATNLADGVPSRFSGSGSGSQYSLKINSLQSEDVARYYCQHYYTTPPTFGGGTKLDIK
Result: ~0.5 µg/mL
